The measurements presented in this section are drawn from patent US10093670B2.

tested-on: human AMPK α1β1γ1 enzyme (Homo sapiens, UniProt Q13131+Q9Y478)
Construct: purchased Carna Biosciences, Inc
Sequence (Q13131 10-559 limits assumed): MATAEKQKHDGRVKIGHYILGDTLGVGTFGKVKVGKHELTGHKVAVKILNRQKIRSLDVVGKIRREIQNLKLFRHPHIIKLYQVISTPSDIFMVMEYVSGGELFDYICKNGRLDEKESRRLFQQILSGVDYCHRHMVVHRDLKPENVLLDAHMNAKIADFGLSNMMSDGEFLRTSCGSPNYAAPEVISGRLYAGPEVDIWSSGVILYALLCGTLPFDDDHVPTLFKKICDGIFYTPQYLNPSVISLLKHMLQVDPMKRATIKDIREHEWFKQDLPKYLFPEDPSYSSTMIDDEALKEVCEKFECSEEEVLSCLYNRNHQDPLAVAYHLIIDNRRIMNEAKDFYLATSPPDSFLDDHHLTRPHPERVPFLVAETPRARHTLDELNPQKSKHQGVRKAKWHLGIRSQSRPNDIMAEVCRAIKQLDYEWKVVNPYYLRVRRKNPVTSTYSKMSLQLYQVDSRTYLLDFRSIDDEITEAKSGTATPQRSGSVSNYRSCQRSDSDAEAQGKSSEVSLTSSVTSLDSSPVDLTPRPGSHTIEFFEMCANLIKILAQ
Sequence (Q9Y478 whole entry): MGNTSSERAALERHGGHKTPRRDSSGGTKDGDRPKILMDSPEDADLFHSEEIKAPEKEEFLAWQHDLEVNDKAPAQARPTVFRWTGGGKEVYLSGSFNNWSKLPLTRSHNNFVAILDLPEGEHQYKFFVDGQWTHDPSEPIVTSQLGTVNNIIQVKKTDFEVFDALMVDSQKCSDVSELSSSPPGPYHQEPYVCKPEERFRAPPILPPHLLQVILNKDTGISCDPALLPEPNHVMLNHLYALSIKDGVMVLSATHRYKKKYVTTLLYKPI
Sequence (P54619 whole entry partner): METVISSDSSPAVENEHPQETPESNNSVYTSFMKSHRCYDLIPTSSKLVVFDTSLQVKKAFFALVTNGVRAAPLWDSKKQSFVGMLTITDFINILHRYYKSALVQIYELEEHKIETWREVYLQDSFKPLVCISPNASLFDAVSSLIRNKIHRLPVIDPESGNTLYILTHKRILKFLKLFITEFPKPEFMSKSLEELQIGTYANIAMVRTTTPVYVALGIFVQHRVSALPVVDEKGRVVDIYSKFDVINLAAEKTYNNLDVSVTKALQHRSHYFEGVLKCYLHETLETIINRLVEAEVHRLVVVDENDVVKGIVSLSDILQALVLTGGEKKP
assay-remarks: Evaluation of AMPK activator, Test Example 1 (mobility-shift kinase assay, FL-Peptide 7)
Assay type: biochemical
cond: human AMPK α1β1γ1, relative to control (100%); read-out: Emax (maximum rate of increase in activity within the measurement range)
endpoint-name: Emax (%)
Answer with a number only, understood to be in %.

Completed entries (count: 5):
compound	tested-on	Emax [%]
CC(Oc1nc2nc(-c3ccc(C4=CCC(C(=O)O)CC4)cc3)c(Cl)cc2[nH]1)c1ccccn1 (stereo not drawn)	human AMPK α1β1γ1 enzyme (Homo sapiens, UniProt Q13131+Q9Y478)	161
CCC(Oc1nc2nc(-c3ccc(N4CCOCC4)cc3)c(Cl)cc2[nH]1)C(=O)O (stereo not drawn)	human AMPK α1β1γ1 enzyme (Homo sapiens, UniProt Q13131+Q9Y478)	240
O=C1CCC(Oc2nc3nc(-c4ccc(N5CCOCC5)cc4)c(Cl)cc3[nH]2)CN1 (stereo not drawn)	human AMPK α1β1γ1 enzyme (Homo sapiens, UniProt Q13131+Q9Y478)	174
CC(Oc1nc2nc(-c3ccc(N4CCOCC4)cc3)c(Cl)cc2[nH]1)[C@H]1CC[C@H](C(=O)O)CC1 (stereo partly drawn)	human AMPK α1β1γ1 enzyme (Homo sapiens, UniProt Q13131+Q9Y478)	288
O=C(O)C1(COc2nc3nc(-c4ccc(N5CCOCC5)cc4)c(Cl)cc3[nH]2)CC1	human AMPK α1β1γ1 enzyme (Homo sapiens, UniProt Q13131+Q9Y478)	229

Return reported Emax. Input compound: CN(C)C(=O)[C@H]1C[C@@H](Oc2nc3nc(-c4ccc(C5=CCC(C(=O)O)CC5)cc4F)c(Cl)cc3[nH]2)C1 (stereo partly drawn)
271

Specify measured Emax for `O=C(O)C[C@H]1CC[C@H](Oc2nc3nc(-c4ccc(N5CCOCC5)cc4)c(Cl)cc3[nH]2)CC1` .
293

Return reported Emax. Input compound: CC(C)(C(=O)O)C1CCC(Oc2nc3nc(-c4ccc(N5CCCC5)cc4)c(Cl)cc3[nH]2)CC1 (stereo not drawn)
275

Give reported Emax value for CN(C)C(=O)N1CC(Oc2nc3nc(-c4ccc(C5=CCC(C(=O)O)CC5)cc4)c(Cl)cc3[nH]2)C1 (stereo not drawn)
193

Provide only the value of recorded Emax for `O=C(O)[C@H]1CC[C@H](Oc2nc3nc(-c4ccc(-c5ccccc5)cc4)c(Cl)cc3[nH]2)CC1`
178

Consider the compound `O=C(O)[C@H]1CC[C@H](Oc2nc3nc(-c4ccc(-c5ccccc5O)cc4)c(Cl)cc3[nH]2)CC1` and give its recorded Emax.
205

Fill in reported Emax for this entry: `CC(C)(Sc1nc2nc(-c3ccc(N4CCOCC4)cc3)c(Cl)cc2[nH]1)C(=O)O`
277

State its Emax: CC(C)C(Oc1nc2nc(-c3ccc(N4CCOCC4)cc3)c(Cl)cc2[nH]1)C(=O)O (stereo not drawn)
228

Given the compound `CC(C)(C(=O)O)[C@]1(O)CC[C@@H](Oc2nc3nc(-c4ccc(-c5ccccc5)cc4)c(Cl)cc3[nH]2)CC1` , write its reported Emax.
389

Give the value of Emax reported for the following: `O=C(c1ccc(-c2ccc(-c3nc4nc(O[C@H]5CC[C@H](C(=O)O)CC5)[nH]c4cc3Cl)cc2)cc1)N1CCOCC1`
189
